Tested on: Syphacia obvelata
Assay type: in vivo
Conditions: in vivo
What Number of dead subjects (+) was measured for each of the following?
// no unit string in output, number only

Please indicate Number of dead subjects (+) recorded for O=C(COc1c(F)c(F)c(F)c(F)c1F)Nc1ncc([N+](=O)[O-])s1 [PH 6168]
0

Please indicate Number of dead subjects (+) recorded for Cc1cc(OCC(=O)Nc2ncc([N+](=O)[O-])s2)ccc1Cl [PH 6314]
0

Please indicate Number of dead subjects (+) recorded for Cc1cc(Cl)c(OCC(=O)Nc2ncc([N+](=O)[O-])s2)cc1C [PH 6305]
0

Please indicate Number of dead subjects (+) recorded for Cc1cc(OCC(=O)Nc2ncc([N+](=O)[O-])s2)c(C(C)C)cc1Cl [PH 6099]
0

Please indicate Number of dead subjects (+) recorded for O=C(COc1cc(C(F)(F)F)cc(C(F)(F)F)c1)Nc1ncc([N+](=O)[O-])s1 [PH 6167]
0

Please indicate Number of dead subjects (+) recorded for O=C(COc1ccc(Cl)cc1Cl)Nc1ncc([N+](=O)[O-])s1 [PH 6091]
0

Please indicate Number of dead subjects (+) recorded for O=C(COc1cc(Cl)ccc1Cl)Nc1ncc([N+](=O)[O-])s1 [PH 6159]
0

Please indicate Number of dead subjects (+) recorded for O=C(COc1ccc(Cl)cc1)Nc1ncc([N+](=O)[O-])s1 [PH 5927]
0

Please indicate Number of dead subjects (+) recorded for O=C(COc1ccc(Br)cc1)Nc1ncc([N+](=O)[O-])s1 [PH 6092]
0

Please indicate Number of dead subjects (+) recorded for O=C(COc1ccc(F)cc1)Nc1ncc([N+](=O)[O-])s1 [PH 6160]
0

----------
Experiment: in vivo
Settings: mouse, ip, intraperitoneal administration to mice, read-out: acute toxicity (LD50)
PROPERTY NAME: LD50

Please indicate LD50 recorded for Cc1cc(OCC(=O)Nc2ncc([N+](=O)[O-])s2)c(C(C)C)cc1Cl
~200 mg/kg

Please indicate LD50 recorded for O=C(COc1ccc(Cl)cc1)Nc1ncc([N+](=O)[O-])s1
> 4500 mg/kg
